Cytochrome P450 2C9 (Homo sapiens, UniProt P11712) data, read-out AC50
Sequence (P11712 whole entry): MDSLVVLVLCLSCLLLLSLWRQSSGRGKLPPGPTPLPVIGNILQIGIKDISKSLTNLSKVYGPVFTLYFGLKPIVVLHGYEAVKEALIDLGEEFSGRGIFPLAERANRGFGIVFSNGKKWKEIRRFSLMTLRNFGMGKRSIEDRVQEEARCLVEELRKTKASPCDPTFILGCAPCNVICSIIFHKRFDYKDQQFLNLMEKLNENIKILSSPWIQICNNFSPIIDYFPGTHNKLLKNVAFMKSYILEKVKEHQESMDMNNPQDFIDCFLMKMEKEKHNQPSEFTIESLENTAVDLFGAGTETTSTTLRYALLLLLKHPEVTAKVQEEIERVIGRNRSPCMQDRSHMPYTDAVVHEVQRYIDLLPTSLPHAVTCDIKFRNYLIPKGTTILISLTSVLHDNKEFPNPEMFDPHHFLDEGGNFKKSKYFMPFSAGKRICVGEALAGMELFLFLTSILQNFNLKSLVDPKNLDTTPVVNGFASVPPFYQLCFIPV

Cc1c(Cl)c([N+](=O)[O-])nn1CC(=O)Nc1c(C)n(C)n(-c2ccccc2)c1=O ... 14.1 µM (inconclusive)
CCCCOC(=O)CSCC(=O)Nc1cc(C)on1 ... 2.51 µM (inconclusive)
O=C(Oc1ccccc1)N1CCC2(CC1)CN(c1ncccn1)C2 ... 25.1 µM (inconclusive)
Cc1ccnc(NCn2nnc3ccccc32)c1 ... 22.4 µM (inconclusive)
Cc1ccc(C)c(NC(=O)C2C3CCCC2C3c2ccccc2)c1 (stereo unspecified) ... 3.16 µM (inconclusive)

So what AC50 did CC(C)Sc1cc(N2CCOCC2)nc(-c2ccc(Cl)cc2)n1 get with Cytochrome P450 2C9 (Homo sapiens, UniProt P11712)?
11.2 µM (inconclusive)

Request: AC50, test system Cytochrome P450 2C9 (Homo sapiens, UniProt P11712), entry O=[N+]([O-])c1cccc(/C=N\Nc2ccc3ccccc3n2)c1O
1 µM (inconclusive)

Recall the recorded AC50 for N#Cc1c(-c2ccccc2)cc(-c2ccccc2)nc1SCc1nnc(-c2ccccc2)o1 with Cytochrome P450 2C9 (Homo sapiens, UniProt P11712) and state it.
0.251 µM (inconclusive)
